Measured values drawn from paper PMC9482650 for this set.

Target: T1, APBA1_2, Q02410
T1 sequence (Q02410 742-832, limits assumed, looked up): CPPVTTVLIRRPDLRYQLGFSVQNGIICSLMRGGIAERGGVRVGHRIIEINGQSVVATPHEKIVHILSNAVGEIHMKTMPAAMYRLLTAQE
Test: holdup assay
Parameters: key: below the threshold = too weak to quantify, mostly under pKd 3.1 to 4
Conditions: plain residues with an end cap or a label only (N-terminal biotin on a linker: ado-ado)
Listed here are binders together with their documented pKd.
Kindly provide the number alone.

Recorded results for 3 binders are shown here.
| binder | pKd |
| --- | --- |
| HLRARKSEWV [GJD4, Q96KN9] | 4.73 |
| PDGQCTVTEV [RNF146, Q9NTX7] | 4.32 |
| LPHGHSTTRV [NLGN4X, Q8N0W4] | 3.54 |

Now consider the entry below.
// recorded pKd for LRSPRTPSEV [OR10G3, Q8NGC4] : 4.1
